- ASSAY_COMMENT: Half life determined from epimerization data at 37 degree C in human blood serum 2
- Assay type: ADME, organism-based, Plasma
MEASURE_NAME: half-life (min)
State just the number; it will be interpreted in min.

Query block: Identify measured half-life corresponding to CC(C)C(NC(=O)[C@@H]1CCCN1C(=O)[C@@H](NC(=O)c1ccc(C(=O)N2CCOCC2)cc1)C(C)C)C(=O)C(F)(F)C(F)(F)F (stereo partly specified)
Result block: 30

---

- Tested on: Rattus norvegicus
- ASSAY_COMMENT: In vivo inhibitory activity against HNE-induced pulmonary hemorrhage was determined in rats after oral administration of 50 mg/kg
- Type: functional
MEASURE_NAME: inhibition in vivo at 50 mg/kg (%)
State just the number; it will be interpreted in %.

Query block: Identify measured inhibition in vivo at 50 mg/kg corresponding to CC(C)C(NC(=O)[C@@H]1CCCN1C(=O)[C@@H](NC(=O)C1CCOCC1)C(C)C)C(=O)C(F)(F)C(F)(F)F (stereo partly specified)
Result block: 71

Query block: Identify measured inhibition in vivo at 50 mg/kg corresponding to CC(C)[C@H](NC(=O)N(C)C)C(=O)N1CCC[C@H]1C(=O)N[C@H](C(=O)C(F)(F)C(F)(F)F)C(C)C
Result block: 70

Query block: Identify measured inhibition in vivo at 50 mg/kg corresponding to CC(C)C(NC(=O)[C@@H]1CCCN1C(=O)[C@@H](NC(=O)c1ccc(NC(=O)N2CCOCC2)cc1)C(C)C)C(=O)C(F)(F)C(F)(F)F (stereo partly specified)
Result block: 26

Query block: Identify measured inhibition in vivo at 50 mg/kg corresponding to CC(C)C(NC(=O)[C@@H]1CCCN1C(=O)[C@@H](NC(=O)N1CCOCC1)C(C)C)C(=O)C(F)(F)C(F)(F)F (stereo partly specified)
Result block: 69

Query block: Identify measured inhibition in vivo at 50 mg/kg corresponding to CC(C)C(NC(=O)[C@@H]1CCCN1C(=O)[C@@H](NC(=O)c1ccc(C(=O)N2CCOCC2)cc1)C(C)C)C(=O)C(F)(F)C(F)(F)F (stereo partly specified)
Result block: 69

Query block: Identify measured inhibition in vivo at 50 mg/kg corresponding to CC(C)[C@H](NC(=O)CN1CCOCC1)C(=O)N1CCC[C@H]1C(=O)N[C@H](C(=O)C(F)(F)C(F)(F)F)C(C)C
Result block: 77
